Method: The drug is tested on Z-003 corresponding to pig gut metagenome with ENA study accession number: PRJEB37062 and ENA sample accession number: ERS12561803 for biotransformation under anaerobic condition. The drug concentrations were measured over 9 timepoints collected between 0 and 24 hours of incubation by liquid-chromatography-coupled mass spectrometry (LC–MS); note: call rule not given here
Condition Context: 2 µM
Measured Endpoint: Bacterial Biotransformation

Compound	Bacterial Biotransformation
C[N+]12CCC(CC1)C(OC(=O)C(O)(c1ccccc1)c1ccccc1)C2.[Br-] (stereo unspecified) [CLIDINIUM BROMIDE]	Compound metabolized
CCCC(C)(COC(N)=O)COC(=O)NC(C)C (stereo unspecified) [CARISOPRODOL]	Compound metabolized
CN[C@H]1CC[C@@H](c2ccc(Cl)c(Cl)c2)c2ccccc21 [SERTRALINE]	Compound metabolized
CC(C)(C)NCC(O)COc1cccc2c1CC(O)C(O)C2 (stereo unspecified) [NADOLOL]	Compound metabolized

Data point: N[C@@H](Cc1ccc(N(CCCl)CCCl)cc1)C(=O)O ; Bacterial Biotransformation = Compound metabolized

# Bacterial Biotransformation of COc1ccc2cc([C@H](C)C(=O)O)ccc2c1 [NAPROXEN] = Compound NOT metabolized

Item: C#C[C@]1(OC(C)=O)CC[C@H]2[C@@H]3CCC4=C[C@@H](OC(C)=O)CC[C@@H]4[C@H]3CC[C@@]21C [ETHYNODIOL DIACETATE] | Bacterial Biotransformation: Compound metabolized

The recorded Bacterial Biotransformation for entry CC(C)(C)NC[C@H](O)COc1nsnc1N1CCOCC1.O=C(O)/C=C\C(=O)O [TIMOLOL MALEATE] equals Compound NOT metabolized
